Each entry below lists one item and its recorded Koff value.
target: T1, PSMA (Homo sapiens, UniProt Q04609); test: Surface plasmon resonance binding assay; conditions: SPR, immobilized NB, 1:1 Langmuir model, 25° C., means ± SD
T1 construct: purified extracellular domain of PSMA [residues 44-750; purchased from Caltech Protein Expression Center, CA]; purchased Caltech Protein Expression Center, CA
T1 sequence (Q04609 44-750): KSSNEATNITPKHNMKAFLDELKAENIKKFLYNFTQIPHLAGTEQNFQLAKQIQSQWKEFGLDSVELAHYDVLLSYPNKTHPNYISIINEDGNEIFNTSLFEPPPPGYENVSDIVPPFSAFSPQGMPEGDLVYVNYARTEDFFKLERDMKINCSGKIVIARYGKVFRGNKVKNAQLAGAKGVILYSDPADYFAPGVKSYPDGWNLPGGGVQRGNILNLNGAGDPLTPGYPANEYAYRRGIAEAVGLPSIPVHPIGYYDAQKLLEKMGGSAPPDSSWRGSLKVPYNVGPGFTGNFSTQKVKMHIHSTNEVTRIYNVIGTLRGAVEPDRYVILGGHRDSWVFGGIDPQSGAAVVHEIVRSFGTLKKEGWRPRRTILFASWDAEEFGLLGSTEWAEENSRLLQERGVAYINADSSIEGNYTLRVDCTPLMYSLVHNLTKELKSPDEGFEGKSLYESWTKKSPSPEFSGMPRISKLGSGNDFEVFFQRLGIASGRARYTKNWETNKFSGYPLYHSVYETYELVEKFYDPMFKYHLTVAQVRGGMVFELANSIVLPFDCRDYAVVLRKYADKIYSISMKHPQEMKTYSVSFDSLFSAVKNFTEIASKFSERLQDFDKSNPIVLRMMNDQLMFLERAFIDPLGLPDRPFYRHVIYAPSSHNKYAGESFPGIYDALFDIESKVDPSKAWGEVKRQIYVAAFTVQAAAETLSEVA
measured quantity: Koff

molecule | result
NB7: anti-PSMA camel nanobody (VHH, ~16 kDa) selected by phage display; PDB 6XXN (protein) VHH: QVQLQESGGGSVQAGGSLRLSCTAPGYTDSNYYMSWFRQAPGKEREWVAGVNTGRGSTSYADSVKGRFTISQDNAKNTMFLQMNSLKPEDTAIYYCAVAACHFCDSLPKTQDEYILWGQGTQVTVSSAAAYPYDVPDYGS | 3.9e-05 ± 2.8e-07 s⁻¹
NB13: anti-PSMA camel nanobody (VHH, ~16 kDa) selected by phage display (protein) VHH: QVQLQESGGGSVQTGGSLRLSCAASGYTASFSWIGYFRQAPGKEREGVAVINVGVGSTYYADSVKGRFTISRDNTENTISLEMNSLKPEDTGLYYCAGSLRWSRPPNPISEDAYNYWGQGTQVTVSSAAAYPYDVPDYGS | 2.2e-05 ± 9.9e-07 s⁻¹
NB8: anti-PSMA camel nanobody (VHH, ~16 kDa) selected by phage display; PDB 6XXO (protein) VHH: QVQLQESGGGSVQAGGSLRLSCARSGWPYSTYSMNWFRQAPGKEREAVAGISSTMSGIIFAESKAGQFTISQDNAKNTVYLQMNNLKPEDTAIYYCAARRDYSLSSSSDDFDYWGQGTQVTVSSAAAYPYDVPDYGS | 0.00012 ± 5.3e-07 s⁻¹
NB37: anti-PSMA camel nanobody (VHH, ~16 kDa) selected by phage display; PDB 6XXP (protein) VHH: QVQLQESGGGSVEAGGSLRLSCARSGWPYSTYSMNWFRQAPGKEREAVAGISSTMSGIIFAESKAGQFTISQDNAKNTVYLQMNNLKPEDTAIYYCAARRDYSLSSSSDDFDYWGQGTQVTVSSAAAYPYDVPDYGS | 7.5e-05 ± 6.6e-07 s⁻¹

Ref: patent US12516130B2
